FYI, the data here is from patent US20260207767A1.

Below: a set of entries, each annotated with reported kon.
Target: T1, cynoPD-1 His (AcroBiosystems PD1-C5223) (cynomolgus monkey, UniProt B0LAJ3 25-170)
T1 construct: also called cPD-1; cynomolgus PD-1 His-tagged
T1 sequence (B0LAJ3 entry or part of it limits assumed): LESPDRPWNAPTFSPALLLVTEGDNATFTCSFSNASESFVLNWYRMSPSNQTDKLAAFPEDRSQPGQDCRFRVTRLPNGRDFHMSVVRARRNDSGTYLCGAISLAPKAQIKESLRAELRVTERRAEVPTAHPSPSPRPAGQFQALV
Experiment: SPR, Ab captured, PD-1 analyte
Protocol: Anti-human Fc IgG (Jackson) was immobilized on amine reactive CM5 chips (GE Healthcare) using 1×HBS-EP+ running buffer (GE Healthcare). The test antibodies were captured at flow rate 10 μl/min with 30 s contact time. […] Regeneration was carried out with 10 mM Glycine-HCl, pH 1.5 at flow rate 10 μL/min. […]
Measurement type: kon (M⁻¹ s⁻¹)

- z6-XVT458 (antibody, human IgG1, kappa, V domains shown, hIgG1; numbering as for z1; also called GH + T071V + T073K) VH: QVQLVQSGAEVKKPGASVKVSCKASGYTFTNFYIHWVRQAPGQGLEWMGSIYPNYGDTAYNQKFKDRVTMTVDKSTSTAYMELRSLRSDDTAVYYCARGYSYAMDYWGQGTTVTVSS VL: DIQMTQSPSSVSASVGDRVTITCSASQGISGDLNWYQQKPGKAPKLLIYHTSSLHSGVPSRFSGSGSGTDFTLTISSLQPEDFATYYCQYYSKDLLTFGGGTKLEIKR: 58400
- z5-XVT458 (antibody, human IgG1, kappa, V domains shown, hIgG1; numbering as for z1; also called GH + V067A + T073K) VH: QVQLVQSGAEVKKPGASVKVSCKASGYTFTNFYIHWVRQAPGQGLEWMGSIYPNYGDTAYNQKFKDRATMTTDKSTSTAYMELRSLRSDDTAVYYCARGYSYAMDYWGQGTTVTVSS VL: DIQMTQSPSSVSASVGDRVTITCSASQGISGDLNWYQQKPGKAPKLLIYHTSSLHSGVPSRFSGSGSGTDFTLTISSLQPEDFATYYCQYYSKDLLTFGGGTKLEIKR: 58600
- z7-XVT458 (antibody, human IgG1, kappa, V domains shown, hIgG1; numbering as for z1; also called GH + V067A + T071V + T073K) VH: QVQLVQSGAEVKKPGASVKVSCKASGYTFTNFYIHWVRQAPGQGLEWMGSIYPNYGDTAYNQKFKDRATMTVDKSTSTAYMELRSLRSDDTAVYYCARGYSYAMDYWGQGTTVTVSS VL: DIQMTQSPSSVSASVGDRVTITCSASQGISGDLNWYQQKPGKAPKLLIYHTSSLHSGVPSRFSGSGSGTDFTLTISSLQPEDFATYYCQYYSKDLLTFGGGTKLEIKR: 58900
